Target: SHP2 (Homo sapiens, UniProt Q06124)
Sequence (Q06124 1-593): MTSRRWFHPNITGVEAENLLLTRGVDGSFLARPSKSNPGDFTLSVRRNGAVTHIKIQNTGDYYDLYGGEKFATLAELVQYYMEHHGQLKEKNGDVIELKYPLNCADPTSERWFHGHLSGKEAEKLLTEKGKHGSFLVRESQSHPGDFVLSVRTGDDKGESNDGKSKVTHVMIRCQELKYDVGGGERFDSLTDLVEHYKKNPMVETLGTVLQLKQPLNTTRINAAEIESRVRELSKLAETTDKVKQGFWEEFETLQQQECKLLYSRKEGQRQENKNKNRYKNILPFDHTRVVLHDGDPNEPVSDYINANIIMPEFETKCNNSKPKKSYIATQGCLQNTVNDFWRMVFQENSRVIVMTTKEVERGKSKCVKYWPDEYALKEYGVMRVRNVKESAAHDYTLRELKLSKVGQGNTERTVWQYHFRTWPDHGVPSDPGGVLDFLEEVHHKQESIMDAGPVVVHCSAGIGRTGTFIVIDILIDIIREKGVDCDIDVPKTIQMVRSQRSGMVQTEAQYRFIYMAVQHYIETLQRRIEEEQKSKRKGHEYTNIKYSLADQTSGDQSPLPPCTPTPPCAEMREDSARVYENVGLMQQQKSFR
Assay: SHP2 enzyme activity test in vitro;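 note: IC50 derived by variable-slope curve fitting of percent inhibition of SHP2 enzymatic activity plotted against log compound concentration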
Conditions: read-out: SHP2 IC50; fluorescence Ex355/Em460, activation peptide
assay metric: IC50 (µM)
Numbers only, in µM.

Query: Please look at this compound and report its IC50: Cc1nc2c(F)cc(-c3nc(Nc4ccc(Sc5cnc(N6CCC7(CC6)CO[C@@H](C)[C@H]7N)cn5)c(Cl)c4)ncc3F)cc2n1C(C)C [Compound 23]
Result: 0.061

The origin of these recorded values is patent US12331058B2.
